Data origin: the supplement of paper PMC9112550

Consider the following sequences; for each one, report its shrunken log2 fold change.
# System: Escherichia coli TOP10
# assay-notes: shrunken log2 fold change of peptide-encoding DNA abundance (4.5 h post-induction vs induction); higher = less antimicrobial activity (less host growth inhibition)
# reported-conditions: time post-induction: 4.5 h; library: site-saturation at positions 5, 18, 19, 20
Reply with just the number.

### Prompt Using the record for `RRIRARPPRLPRPRPRPDQAPRP` , report its shrunken log2 fold change.
### Response 0.026

### Prompt Using the record for `RRIRSRPPRLPRPRPRPWDCPRP` , report its shrunken log2 fold change.
### Response -0.00801

### Prompt Using the record for `RRIRWRPPRLPRPRPRPIMMPRP` , report its shrunken log2 fold change.
### Response -0.312

### Prompt Using the record for `RRIRQRPPRLPRPRPRPTMPPRP` , report its shrunken log2 fold change.
### Response 0.2

### Prompt Using the record for `RRIRERPPRLPRPRPRPIPIPRP` , report its shrunken log2 fold change.
### Response -0.027

* * *

# Test system: Escherichia coli TOP10;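 further: peptides expressed intracellularly from a pBAD plasmid library in pooled LB shake-flask culture, induced with 0.3% L-arabinose, DNA abundance read by NGS, three biological replicates, DESeq2 with apeglm shrinkage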
# assay-notes: shrunken log2 fold change of peptide-encoding DNA abundance (4.5 h post-induction vs induction); higher = less antimicrobial activity (less host growth inhibition)
# reported-conditions: time post-induction: 4.5 h; library: site-saturation at positions 5, 18, 19, 20
measured-endpoint: shrunken log2 fold change
Reply with just the number.

### Prompt Using the record for `RRIRKRPPRLPRPRPRPGCMPRP` , report its shrunken log2 fold change.
### Response 0.993

### Prompt Using the record for `RRIRMRPPRLPRPRPRPNLEPRP` , report its shrunken log2 fold change.
### Response 0.284

### Prompt Using the record for `RRIRERPPRLPRPRPRPMQNPRP` , report its shrunken log2 fold change.
### Response 0.168

### Prompt Using the record for `RRIRYRPPRLPRPRPRPGLWPRP` , report its shrunken log2 fold change.
### Response 0.032

### Prompt Using the record for `RRIRPRPPRLPRPRPRPAEWPRP` , report its shrunken log2 fold change.
### Response 0.308

### Prompt Using the record for `RRIRMRPPRLPRPRPRPAWRPRP` , report its shrunken log2 fold change.
### Response 0.533

### Prompt Using the record for `RRIRSRPPRLPRPRPRPSLNPRP` , report its shrunken log2 fold change.
### Response -0.142

### Prompt Using the record for `RRIRQRPPRLPRPRPRPDAPPRP` , report its shrunken log2 fold change.
### Response 0.655

### Prompt Using the record for `RRIRQRPPRLPRPRPRPAVDPRP` , report its shrunken log2 fold change.
### Response 0.963

### Prompt Using the record for `RRIRMRPPRLPRPRPRPPTWPRP` , report its shrunken log2 fold change.
### Response 0.627

### Prompt Using the record for `RRIRCRPPRLPRPRPRPQKSPRP` , report its shrunken log2 fold change.
### Response -0.554

### Prompt Using the record for `RRIRHRPPRLPRPRPRPGLDPRP` , report its shrunken log2 fold change.
### Response 0.269

### Prompt Using the record for `RRIRNRPPRLPRPRPRPEVQPRP` , report its shrunken log2 fold change.
### Response 0.0358

### Prompt Using the record for `RRIRRRPPRLPRPRPRPMHAPRP` , report its shrunken log2 fold change.
### Response 1.49

### Prompt Using the record for `RRIRERPPRLPRPRPRPQRDPRP` , report its shrunken log2 fold change.
### Response 0.0296

### Prompt Using the record for `RRIRNRPPRLPRPRPRPTFDPRP` , report its shrunken log2 fold change.
### Response 0.0109

### Prompt Using the record for `RRIRMRPPRLPRPRPRPDQTPRP` , report its shrunken log2 fold change.
### Response 0.0101

### Prompt Using the record for `RRIRIRPPRLPRPRPRPVQWPRP` , report its shrunken log2 fold change.
### Response 0.0754

### Prompt Using the record for `RRIRIRPPRLPRPRPRPHQHPRP` , report its shrunken log2 fold change.
### Response -0.351

### Prompt Using the record for `RRIRPRPPRLPRPRPRPTNGPRP` , report its shrunken log2 fold change.
### Response 0.191

### Prompt Using the record for `RRIRNRPPRLPRPRPRPKGAPRP` , report its shrunken log2 fold change.
### Response 0.476

### Prompt Using the record for `RRIRCRPPRLPRPRPRPNQEPRP` , report its shrunken log2 fold change.
### Response -0.0562

### Prompt Using the record for `RRIRCRPPRLPRPRPRPCGIPRP` , report its shrunken log2 fold change.
### Response 0.153

### Prompt Using the record for `RRIRSRPPRLPRPRPRPYGWPRP` , report its shrunken log2 fold change.
### Response 0.328

### Prompt Using the record for `RRIRQRPPRLPRPRPRPHKNPRP` , report its shrunken log2 fold change.
### Response -0.194

### Prompt Using the record for `RRIRNRPPRLPRPRPRPAQVPRP` , report its shrunken log2 fold change.
### Response 0.157

### Prompt Using the record for `RRIRRRPPRLPRPRPRPFGDPRP` , report its shrunken log2 fold change.
### Response -0.0397

### Prompt Using the record for `RRIRMRPPRLPRPRPRPKEDPRP` , report its shrunken log2 fold change.
### Response 1.82

### Prompt Using the record for `RRIRERPPRLPRPRPRPDKTPRP` , report its shrunken log2 fold change.
### Response -0.0128

### Prompt Using the record for `RRIRPRPPRLPRPRPRPETCPRP` , report its shrunken log2 fold change.
### Response 0.787

### Prompt Using the record for `RRIRIRPPRLPRPRPRPDASPRP` , report its shrunken log2 fold change.
### Response -0.00609

### Prompt Using the record for `RRIRRRPPRLPRPRPRPHEEPRP` , report its shrunken log2 fold change.
### Response 0.0957

### Prompt Using the record for `RRIRNRPPRLPRPRPRPQYPPRP` , report its shrunken log2 fold change.
### Response -0.571

### Prompt Using the record for `RRIRFRPPRLPRPRPRPVRMPRP` , report its shrunken log2 fold change.
### Response 0.0345

### Prompt Using the record for `RRIRCRPPRLPRPRPRPQGGPRP` , report its shrunken log2 fold change.
### Response -0.107

### Prompt Using the record for `RRIRMRPPRLPRPRPRPIGWPRP` , report its shrunken log2 fold change.
### Response 0.599

### Prompt Using the record for `RRIRLRPPRLPRPRPRPTMVPRP` , report its shrunken log2 fold change.
### Response -0.0972

### Prompt Using the record for `RRIRNRPPRLPRPRPRPGQVPRP` , report its shrunken log2 fold change.
### Response 0.0381

### Prompt Using the record for `RRIRARPPRLPRPRPRPKVHPRP` , report its shrunken log2 fold change.
### Response 0.491

### Prompt Using the record for `RRIRFRPPRLPRPRPRPGYSPRP` , report its shrunken log2 fold change.
### Response -0.934

### Prompt Using the record for `RRIRQRPPRLPRPRPRPSDQPRP` , report its shrunken log2 fold change.
### Response 0.152

### Prompt Using the record for `RRIRCRPPRLPRPRPRPSVIPRP` , report its shrunken log2 fold change.
### Response -0.0544

### Prompt Using the record for `RRIRMRPPRLPRPRPRPGLQPRP` , report its shrunken log2 fold change.
### Response 4.5

### Prompt Using the record for `RRIRVRPPRLPRPRPRPGPDPRP` , report its shrunken log2 fold change.
### Response 0.465

### Prompt Using the record for `RRIRVRPPRLPRPRPRPIYQPRP` , report its shrunken log2 fold change.
### Response -0.27

### Prompt Using the record for `RRIRWRPPRLPRPRPRPYCCPRP` , report its shrunken log2 fold change.
### Response -0.569

### Prompt Using the record for `RRIRLRPPRLPRPRPRPKTHPRP` , report its shrunken log2 fold change.
### Response -0.0161

### Prompt Using the record for `RRIRTRPPRLPRPRPRPCDAPRP` , report its shrunken log2 fold change.
### Response 0.0216

### Prompt Using the record for `RRIRRRPPRLPRPRPRPLCIPRP` , report its shrunken log2 fold change.
### Response -0.119

### Prompt Using the record for `RRIRKRPPRLPRPRPRPTNHPRP` , report its shrunken log2 fold change.
### Response -0.0148

### Prompt Using the record for `RRIRPRPPRLPRPRPRPAVIPRP` , report its shrunken log2 fold change.
### Response -0.007

### Prompt Using the record for `RRIRTRPPRLPRPRPRPEPLPRP` , report its shrunken log2 fold change.
### Response 0.0272

### Prompt Using the record for `RRIRRRPPRLPRPRPRPECMPRP` , report its shrunken log2 fold change.
### Response 0.921

### Prompt Using the record for `RRIRARPPRLPRPRPRPSKLPRP` , report its shrunken log2 fold change.
### Response -0.118

### Prompt Using the record for `RRIRIRPPRLPRPRPRPPYKPRP` , report its shrunken log2 fold change.
### Response -0.386

### Prompt Using the record for `RRIRERPPRLPRPRPRPVDFPRP` , report its shrunken log2 fold change.
### Response -0.0586
